# procedure-summary: Resistance to proteolytic degradation in fetal bovine serum
# Type: in vitro ADME
# assay-conditions: fetal bovine serum, 25% in water, 25% fetal bovine serum in water, 37 °C, LC peak area, time 0 = 100; 0.5 h; replicate 3; read-out: Peptide remaining
No end group written: not given here.
endpoint-label: remaining at 0.5 h

>>> endpoint_value("FLPLIGRVLSGIL-NH2 [Temporin A, reference compound]")
"0%"

----------
# procedure-summary: Resistance to proteolytic degradation in fetal bovine serum
# Assay type: in vitro ADME
# assay-conditions: 25% fetal bovine serum in water, 37 °C, LC peak area, time 0 = 100; 1 h; replicate 1
# Description: Stability assays were performed following the protocol described by Torres et al.[67]. Briefly, a peptide solution was added to GIBCO fetal bovine serum diluted to 25% in water and kept at 37 °C. The degradation kinetics were monitored by liquid chromatography and the percentage of peptide remaining in each case was calculated by integrating the peptide peak area. These experiments were performed as three independent replicates, and aliquots were taken at 0, 0.5, 1, 2, 4, and 6 h.
No end group written: not given here.
# maps each entry to its Peptide remaining
endpoint-label: Peptide remaining

>>> endpoint_value("GLGALLNVIKSGL-NH2 [AV]")
27.7
>>> endpoint_value("FLPLIGRVLSGIL-NH2 [Temporin A, reference compound]")
0
>>> endpoint_value("FLGAIGNVLKSIL-NH2 [TV]")
0
>>> endpoint_value("ILGAILNVLKSLG-NH2 [PV]")
0
>>> endpoint_value("FLGTLWGGAKGVF-NH2 [VP]")
14.7
>>> endpoint_value("FLGSLWRKAGTVF-NH2 [VD]")
66.3
>>> endpoint_value("FLGALWNVAKSVF-NH2 [VmCT1, reference compound]")
6.3
>>> endpoint_value("GLLKRIKTLL-NH2 [Anoplin, reference compound]")
20.4
>>> endpoint_value("SLGALINVLKSGG-NH2 [DV]")
0.0

Reference source: paper PMC10587126
